Hey, just so you know, these numbers are from patent US9663496B2.

ASSAYED TARGET: AMPK
MEASUREMENT NOTES: AMPK activation, enzyme-linked immunosorbent assay
Format: biochemical
CONDITION DESCRIPTION: EC50 for AMPK activation, ELISA
Procedure: Compounds were assayed for their ability to activate AMPK using an enzyme-linked immunosorbent assay. Reagents and procedures for measuring AMPK activation are well known and kits for AMPK activation assays are commercially available.
pEC50: −log10 of the molar value.
PARAMETER: pEC50

In [3]: df
Out[3]:
                                   compound  assayed_target  parameter  reading
0  N#Cc1ccc(CN2CCC(NC(=O)c3ccc(C(=O)N4CCC(C(=O)c5ccc(N6CCOCC6)cc5)CC4)cn3)CC2)cc1            AMPK      pEC50   > 6.30

**Q:** Query pEC50 for `O=C(Nc1ccc(Oc2ccc(F)cc2)nc1)c1ccc(C(=O)N2CCC(C(=O)c3ccc(F)cc3)CC2)cn1`
**A:** > 6.30

**Q:** Query pEC50 for `COc1ccc(C(=O)C2CCN(C(=O)c3ccc(C(=O)NC4CCN(Cc5ccc(S(C)(=O)=O)cc5)CC4)cn3)CC2)cc1`
**A:** < 5.00

**Q:** Query pEC50 for `O=C(NC1CCN(Cc2ccccc2)CC1)c1ccc(C(=O)N2CCN(c3ccccc3)CC2)cn1`
**A:** 5.30 to 6.00

**Q:** Query pEC50 for `N#Cc1ccc(CN2CCC(NC(=O)c3ccc(C(=O)N4CCN(c5ccc(S(=O)(=O)C(F)(F)F)cc5)CC4)cn3)CC2)cc1`
**A:** > 6.30
